The entries below come with measured Inhibition values attached.
Test system: Plasmodium falciparum
Method description: GSK_TCMDC: Inhibition of Plasmodium falciparum Dd2 in whole red blood cells, using parasite LDH activity as an index of growth. Test compounds present at 2uM
Assay type: functional
Result type: Inhibition (%)

compound=CC(=O)Nc1ccc(OCCCN(Cc2ccccc2OC(F)(F)F)c2ccc(C(F)(F)F)c(C#N)c2)c(Cl)c1 result_type=Inhibition numeric_result=80
compound=O=C(/C=C/c1ccc(Cl)c(Cl)c1)NCCCCCN1CCC(NC(=O)c2ccc(F)cc2F)CC1 result_type=Inhibition numeric_result=11
compound=O=C(N1CCN(c2cccc(C(F)(F)F)c2)CC1)C(Cl)(Cl)Cl result_type=Inhibition numeric_result=35
compound="CC(Cc1ccc(NS(=O)(=O)c2ccc(CC(C)NCCc3cccc(Cl)c3)cc2)cc1)NCCc1cccc(Cl)c1 (configuration not stated)" result_type=Inhibition numeric_result=38
compound=Cc1cccc2nc(-c3cccc(-c4ccc(NC(=O)c5ccncc5)cc4)c3)[nH]c12 result_type=Inhibition numeric_result=74
compound="Cc1nn(-c2cccc(Cl)c2)c2c1C(C(=O)c1ccc3c(c1)OCO3)CC(=O)N2 (configuration not stated)" result_type=Inhibition numeric_result=95
compound=Cc1cccc(-c2nc3[nH]c(=O)cc(NC(=O)C(C)C)n3n2)c1 result_type=Inhibition numeric_result=93
compound=CN(CCS(C)(=O)=O)Cc1ccc(-c2ccc3ncnc(Nc4ccc(OCc5cccc(F)c5)c(Cl)c4)c3c2)o1.Cc1ccc(S(=O)(=O)O)cc1 result_type=Inhibition numeric_result=65
compound="O=C(Nc1cccc(C(F)(F)F)c1)c1ccc(S(=O)(=O)NCC2CCCN(CC3CCCCC3)C2)cc1.O=C(O)C(F)(F)F (configuration not stated)" result_type=Inhibition numeric_result=9
compound=Cc1cccc2nc(-c3cccc(-c4ccc(NC(=O)CN5CCOCC5)cc4)c3)[nH]c12 result_type=Inhibition numeric_result=12
compound=Br.C=CCc1cccc(C)c1OCCCON1C(=N)N=C(N)NC1(C)C result_type=Inhibition numeric_result=95
compound=CCCCCCCN(Cc1ccc(OC(C)(C)C(=O)OCC)cc1)C(=O)Nc1ccccc1OCC result_type=Inhibition numeric_result=94
compound=CC(C)CCNC(=N)Nc1ccc(OCCCCCOc2ccc(NC(=N)NCCC(C)C)cc2)cc1 result_type=Inhibition numeric_result=67
compound=Br.CC1(C)NC(N)=NC(=N)N1OCCSCCON1C(=N)N=C(N)NC1(C)C result_type=Inhibition numeric_result=81
compound=Cl.NC(=O)c1cccc(Nc2nccc(Nc3ccc4[nH]c(-c5ccccc5)cc4c3)n2)c1 result_type=Inhibition numeric_result=98
compound=Cl.Oc1cccc(Nc2ccnc3cc(-c4ccncc4)ccc23)c1 result_type=Inhibition numeric_result=99
compound=Cl.N=C(N)NCCCN(Cc1ccccc1)c1ccccc1 result_type=Inhibition numeric_result=97
compound=Cl.O=c1cc(NCCCNCc2ccc(Cl)c(Cl)c2)[nH]c2cc(Cl)ccc12 result_type=Inhibition numeric_result=51
compound=O=S(=O)(Nc1cccc(CCN2CCC(N3CCCCC3)CC2)c1)c1ccc(Oc2ccccc2)cc1 result_type=Inhibition numeric_result=25
compound=Cc1ccc(NC(=O)c2cccc(CN3CCCN(Cc4cccc(O)c4)CC3)c2)cc1.O=C(O)C(F)(F)F result_type=Inhibition numeric_result=3
compound=COc1cc2nc(N3CCC(c4ccccc4)CC3)nc(NCc3ccc(=O)[nH]c3)c2cc1OC result_type=Inhibition numeric_result=58
compound=O=C(Nc1ccc(Cn2ncc(N3CCCNCC3)c(Cl)c2=O)cc1)Nc1cccc(Oc2ccccc2)c1.O=C(O)C(F)(F)F result_type=Inhibition numeric_result=41
compound=N=C(N)Nc1nc(-c2cccc(NCCCCCCCCON3C(N)=NC(N)=NC34CCCCC4)c2)cs1.O=C(O)C(F)(F)F result_type=Inhibition numeric_result=42
compound=O=C(Cc1ccc(NC(=O)c2ccc(O)c(-c3cccc([N+](=O)[O-])c3)c2)cc1)NCCN1CCCCC1 result_type=Inhibition numeric_result=3
compound=CNCCNCc1cccc(-c2ccc(-c3nc4cc(C(F)(F)F)ccc4[nH]3)cc2)c1.O=C(O)C(F)(F)F result_type=Inhibition numeric_result=92
compound="Cc1ccc(O)c(-c2cc(C(=O)Nc3ccc(S(=O)(=O)N4CCCC(C)C4)cc3)[nH]n2)c1 (configuration not stated)" result_type=Inhibition numeric_result=97
compound=CN1CCN(c2ccc(Nc3c(C(N)=O)cnc4cc(-c5ccoc5)ccc34)cc2)CC1.Cl result_type=Inhibition numeric_result=99
compound=CC(C)CCN1CCCN(Cc2cccc(NC(=O)c3cc4ccccc4s3)c2)CC1.O=C(O)C(F)(F)F result_type=Inhibition numeric_result=8
compound="CC(C)c1ccc(-c2noc(SCC(=O)N3CCCCC3C)n2)cc1 (configuration not stated)" result_type=Inhibition numeric_result=92
compound=O=C(Nc1ccc2c(c1)OCO2)c1cc(-c2cccnc2)cnc1NCc1ccc2c(c1)OCO2 result_type=Inhibition numeric_result=1
compound=CCNC(=O)Nc1ccc(N(C)c2ccnc(NC3CC3)n2)cc1 result_type=Inhibition numeric_result=80
compound=CN1CCC(NCc2ccc(-c3cnc(NCc4ccccc4)nc3)cc2)CC1.O=C(O)C(F)(F)F result_type=Inhibition numeric_result=64
compound=CCOc1ccc(-c2nc(NC(=O)CS(=O)(=O)c3ccccc3)sc2C)cc1 result_type=Inhibition numeric_result=59
compound=COc1cccc(Cc2c(C)nc3nc(N)nc(N)c3c2C)c1.Cl result_type=Inhibition numeric_result=1
compound=Cc1nc2nc(N)nc(N)c2c(C)c1Cc1c(Cl)cccc1Cl.Cl result_type=Inhibition numeric_result=5
compound=Cc1cc(NC(=O)Nc2ccc(C(C)(C)C)cc2)c2ccccc2n1 result_type=Inhibition numeric_result=57
compound=CCN(CC)CCN(Cc1ccc(-c2ccc(C(F)(F)F)cc2)cc1)C(=O)Cn1c(CCc2ccc(F)c(F)c2F)nc(=O)c2cccnc21.O=C(O)C(O)C(O)C(=O)O result_type=Inhibition numeric_result=20

---

Tested on: Plasmodium falciparum
Method description: GSK_TCMDC: Inhibition of Plasmodium falciparum 3D7 in whole red blood cells, using parasite LDH activity as an index of growth. Test compounds present at 2uM
Assay type: functional
Result type: Inhibition (%)

molecule=CC(C)(CNC(=O)[C@@H]1CCCN(CCOc2ccc(Cl)cc2)C1)c1nc(-c2ccc(Cl)c(O)c2)c(-c2ccncc2)[nH]1.Cl result_type=Inhibition numeric_result=92
molecule=CS(=O)(=O)Nc1ccc2c(C3CCN(CCC4CCN(C(=O)/C=C/c5ccc(Cl)c(Cl)c5)CC4)CC3)c[nH]c2c1 result_type=Inhibition numeric_result=99
molecule=CC(=O)NCCNc1nccc(N2CCc3ncnc(Nc4ccc(OCc5ccccn5)c(Cl)c4)c3C2)n1 result_type=Inhibition numeric_result=99
molecule=CC(C)c1ccc(NC(=O)Nc2ccc(CCNCCCc3ccccc3)cc2)cc1 result_type=Inhibition numeric_result=100
molecule=COc1cc(C(=O)NCCCN2CCN(c3cc(Cl)ccc3OC)CC2)ccc1-c1nc2cc(Cl)c(Cl)cc2[nH]1 result_type=Inhibition numeric_result=100
molecule=CCN(CC)CCCCNc1cc(-c2[nH]c(C(C)(C)C)nc2-c2ccc3cc(OC)ccc3c2)ccn1.O=C(O)C(F)(F)F result_type=Inhibition numeric_result=85
molecule=COc1cc2nc(C)nc(Nc3ccc(Oc4ccccc4)cc3)c2cc1OC.Cl result_type=Inhibition numeric_result=100
molecule=CN1CCN(c2ccnc3ccc(NC(=O)Nc4ccc5c(c4)CCCC5=O)cc23)CC1 result_type=Inhibition numeric_result=100

---

Test system: Plasmodium falciparum
Method description: GSK_TCMDC: Inhibition of Plasmodium falciparum 3D7 in whole red blood cells, using parasite LDH activity as an index of growth. Test compounds present at 2uM
Format: functional
Result type: Inhibition (%)

compound=CCOc1cc(C(=O)NCc2cc(Cl)cc(Cl)c2)ccc1-c1nc2cc(Cl)ccc2[nH]1 assayed_target="Plasmodium falciparum" result_type=Inhibition numeric_result=100
compound=COc1ccc(Nc2nccc(NCCNC(=O)Nc3cc(C)ccc3C)n2)cc1 assayed_target="Plasmodium falciparum" result_type=Inhibition numeric_result=85
compound="O=C(NC1CCN(c2ccnc3cc(Cl)ccc23)C1)c1ccccc1F.O=C(O)C(F)(F)F (stereo not given)" assayed_target="Plasmodium falciparum" result_type=Inhibition numeric_result=100
compound=COc1ccc(-c2cncc3ccc(C(=O)NCCCn4ccnc4)nc23)cc1 assayed_target="Plasmodium falciparum" result_type=Inhibition numeric_result=95
compound=CN1CCCN(Cc2ccc(-c3ccc(NS(=O)(=O)c4cccc5cccnc45)cc3)cc2)CC1.O=C(O)C(F)(F)F assayed_target="Plasmodium falciparum" result_type=Inhibition numeric_result=99
compound=Cl.NOCCCCOc1ccc(Br)cc1 assayed_target="Plasmodium falciparum" result_type=Inhibition numeric_result=99
compound="O=C(NCC1CCN(Cc2ccc3c(c2)OCCO3)C1)c1cc(-c2ccccc2F)cs1.O=C(O)C(F)(F)F (stereo not given)" assayed_target="Plasmodium falciparum" result_type=Inhibition numeric_result=95
compound=N#Cc1ccc(CN2CCC(Oc3ccc(NC(=O)c4cccs4)cc3)CC2)cc1.O=C(O)C(F)(F)F assayed_target="Plasmodium falciparum" result_type=Inhibition numeric_result=83
compound=Cl.N=C(N)c1ccc(NC(=O)Cc2nc3cc(C(=N)N)ccc3[nH]2)cc1 assayed_target="Plasmodium falciparum" result_type=Inhibition numeric_result=87
compound=Cl.Nc1nc(N)c2c(ccc3c2ccn3C2CCCCC2)n1 assayed_target="Plasmodium falciparum" result_type=Inhibition numeric_result=97

Reference for the values: ChEMBL document CHEMBL1157539
